# experiment: Liver Microsome Stability Assay (mouse)
# conditionsUsed: mouse liver microsomes, with NADPH, 1.0 uM compound
assayReadout: Liver Microsome Stability (Multiple Species): Mouse - % Remaining after 30 min w/NADPH (%)

Below are worked cases with known answers.
CC(=O)N1CCC(Oc2ccc(N3CCC[C@@H]3c3csc(NC(=O)c4cccn4Cc4ccnc(F)c4)n3)c(Cl)c2)CC1 | 0.06
Cc1cc(C(=O)Nc2nc([C@H]3CCCN3c3ccc(NC(=O)N(C)C)cc3)cs2)n(Cc2ccnc(F)c2)c1 | 36.3
CC(C)c1c(/C=C/c2csc(NC(=O)c3cccn3Cc3ccncc3)n2)ncn1C | 0.8
CC(=O)NCc1ccc(N2CCC[C@@H]2c2csc(NC(=O)c3cccn3Cc3ccnc(F)c3)n2)cc1 | 13.7
CN(C)C(=O)N1CC(Oc2ccc(N3CCC[C@@H]3c3csc(NC(=O)c4cccn4Cc4ccnc(F)c4)n3)cc2)C1 | 20.4

P: CC(CCC#N)n1cccc1C(=O)Nc1nc([C@H]2CCCN2c2ccccc2)cs1 (stereo partly shown)
Q: O=C(Nc1nc([C@H]2CCCN2c2ccccc2)cs1)c1cccn1Cc1ccccc1
Request: Kindly compare P with Q and tell me which has the lower Liver Microsome Stability (Multiple Species): Mouse - % Remaining after 30 min w/NADPH figure. Refer to your chosen entry by its label in the reply.
Response: P
